biological target: EML4-ALK (Homo sapiens) (UniProt Q9UM73+Q9HC35); assay: Inhibition of EML4-ALK in human NCI-H3122 cells assessed as inhibition of cell proliferation after 72 hrs by SRB assay; assay type: cell-based
Sequence (Q9HC35 whole entry partner): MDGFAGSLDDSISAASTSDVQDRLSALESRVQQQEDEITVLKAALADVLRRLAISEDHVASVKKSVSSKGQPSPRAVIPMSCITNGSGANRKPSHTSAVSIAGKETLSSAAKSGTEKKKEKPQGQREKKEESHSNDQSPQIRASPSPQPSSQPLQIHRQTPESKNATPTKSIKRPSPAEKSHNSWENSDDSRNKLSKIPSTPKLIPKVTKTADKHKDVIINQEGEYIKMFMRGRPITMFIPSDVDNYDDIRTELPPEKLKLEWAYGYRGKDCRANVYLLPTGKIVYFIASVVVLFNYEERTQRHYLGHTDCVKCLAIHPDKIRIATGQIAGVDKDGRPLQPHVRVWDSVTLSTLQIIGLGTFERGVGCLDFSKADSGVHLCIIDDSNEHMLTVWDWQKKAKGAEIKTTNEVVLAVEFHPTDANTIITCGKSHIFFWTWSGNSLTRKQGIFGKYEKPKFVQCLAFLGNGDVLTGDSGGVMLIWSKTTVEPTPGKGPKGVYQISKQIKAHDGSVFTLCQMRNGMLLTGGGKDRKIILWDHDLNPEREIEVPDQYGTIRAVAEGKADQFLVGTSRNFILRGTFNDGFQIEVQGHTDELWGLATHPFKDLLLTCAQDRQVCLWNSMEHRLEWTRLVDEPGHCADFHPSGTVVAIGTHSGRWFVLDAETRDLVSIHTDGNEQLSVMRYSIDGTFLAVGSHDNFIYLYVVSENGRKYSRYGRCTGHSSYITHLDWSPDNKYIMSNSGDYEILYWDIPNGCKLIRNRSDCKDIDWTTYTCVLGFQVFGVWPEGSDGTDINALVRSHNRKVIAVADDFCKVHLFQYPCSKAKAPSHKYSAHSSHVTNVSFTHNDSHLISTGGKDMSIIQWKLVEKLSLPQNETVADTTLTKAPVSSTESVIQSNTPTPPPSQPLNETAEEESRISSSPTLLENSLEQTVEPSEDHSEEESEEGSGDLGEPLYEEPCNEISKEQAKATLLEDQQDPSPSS
Sequence (Q9UM73 19-1620 limits assumed): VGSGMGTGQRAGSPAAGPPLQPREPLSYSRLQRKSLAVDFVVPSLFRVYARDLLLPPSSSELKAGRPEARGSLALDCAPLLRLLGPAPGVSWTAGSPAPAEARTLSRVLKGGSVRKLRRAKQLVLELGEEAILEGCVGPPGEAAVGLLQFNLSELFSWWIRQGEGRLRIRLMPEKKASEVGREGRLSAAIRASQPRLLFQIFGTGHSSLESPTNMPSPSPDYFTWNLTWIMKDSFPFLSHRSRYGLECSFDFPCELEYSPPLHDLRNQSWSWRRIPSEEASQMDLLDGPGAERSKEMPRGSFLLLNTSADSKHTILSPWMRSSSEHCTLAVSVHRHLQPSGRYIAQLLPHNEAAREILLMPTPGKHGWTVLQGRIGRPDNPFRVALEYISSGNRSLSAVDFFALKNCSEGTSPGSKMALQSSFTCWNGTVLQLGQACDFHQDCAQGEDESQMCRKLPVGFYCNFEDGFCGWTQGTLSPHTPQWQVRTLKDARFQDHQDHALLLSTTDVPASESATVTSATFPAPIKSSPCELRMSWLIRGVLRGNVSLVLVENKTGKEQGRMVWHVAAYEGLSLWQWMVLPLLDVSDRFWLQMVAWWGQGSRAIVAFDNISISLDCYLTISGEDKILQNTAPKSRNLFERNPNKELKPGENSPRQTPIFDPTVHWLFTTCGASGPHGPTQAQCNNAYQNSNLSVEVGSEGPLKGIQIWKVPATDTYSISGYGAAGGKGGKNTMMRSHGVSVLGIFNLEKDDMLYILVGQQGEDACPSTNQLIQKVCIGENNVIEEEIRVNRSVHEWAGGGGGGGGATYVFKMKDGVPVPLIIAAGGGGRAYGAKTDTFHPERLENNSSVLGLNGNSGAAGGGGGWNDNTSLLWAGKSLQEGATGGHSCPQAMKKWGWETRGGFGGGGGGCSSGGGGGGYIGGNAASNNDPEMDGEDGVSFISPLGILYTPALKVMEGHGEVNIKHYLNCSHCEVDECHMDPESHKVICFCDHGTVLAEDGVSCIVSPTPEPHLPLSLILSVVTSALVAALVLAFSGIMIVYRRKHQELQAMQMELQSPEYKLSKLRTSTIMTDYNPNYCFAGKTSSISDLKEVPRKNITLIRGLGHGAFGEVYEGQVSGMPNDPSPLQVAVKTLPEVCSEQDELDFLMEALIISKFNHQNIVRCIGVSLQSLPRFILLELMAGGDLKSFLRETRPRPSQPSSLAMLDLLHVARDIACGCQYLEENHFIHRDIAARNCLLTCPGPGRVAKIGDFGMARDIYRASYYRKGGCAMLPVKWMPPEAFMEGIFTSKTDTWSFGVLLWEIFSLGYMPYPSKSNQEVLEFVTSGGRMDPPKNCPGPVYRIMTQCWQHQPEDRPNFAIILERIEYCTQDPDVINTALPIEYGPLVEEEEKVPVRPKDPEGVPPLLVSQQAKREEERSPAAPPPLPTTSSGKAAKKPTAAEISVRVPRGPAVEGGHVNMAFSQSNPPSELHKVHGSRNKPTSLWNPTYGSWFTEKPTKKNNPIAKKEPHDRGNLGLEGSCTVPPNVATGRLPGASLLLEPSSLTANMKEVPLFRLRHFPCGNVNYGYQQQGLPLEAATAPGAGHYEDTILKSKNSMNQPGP
Metric: CC50

compound="COc1cc2c(cc1Nc1ncc(Cl)c(Nc3ccccc3S(=O)(=O)C(C)C)n1)CCC(NC(=O)CO)C2(C)C (centres undefined)" meas_value="44 nM"
compound=COc1cc2c(cc1Nc1ncc(Cl)c(Nc3ccccc3S(=O)(=O)C(C)C)n1)CC/C(=N\NC(N)=O)C2(C)C meas_value="117 nM"
compound=COc1cc2c(cc1Nc1ncc(Cl)c(Nc3ccccc3S(=O)(=O)C(C)C)n1)CC/C(=N\N1CCOCC1)C2(C)C meas_value="30 nM"
compound="COc1cc2c(cc1Nc1ncc(Cl)c(Nc3ccccc3S(=O)(=O)C(C)C)n1)CCC(NC(=O)CN(C)C)C2(C)C (centres undefined)" meas_value="39 nM"

Where these numbers come from: ChEMBL document CHEMBL3784918
